B1: Intersectin-1, residues 1156 to 1213; numbered along this chain, Q15811 (parent)
chain: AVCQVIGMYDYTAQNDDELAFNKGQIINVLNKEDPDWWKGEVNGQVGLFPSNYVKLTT

Variants of: B1
Assay: abundance fitness (aPCA) (normalised: wild type 0, dead -1); higher = more abundant; growth selection in yeast, the domain comes from the species named
Settings: Homo sapiens
Definition: the class of an entry is the range in class 0: < -0.7; class 1: ≥ -0.7 and < -0.5; class 2: ≥ -0.5 that contains its abundance fitness.

## Input Assign a bin to AVCQVFGMYDYTAQNDDELAFNKGQIINVLNKEDPDWWKGEVNGQVGLFPSNYVKLTT [I6F]
## Output class 1

## Input Record: AVCQVIGMYDYTAQNDHELAFNKGQIINVLNKEDPDWWKGEVNGQVGLFPSNYVKLTT [D17H]
## Output class 2

## Input And the next one, AVCQVIGMYDYTAQNDDELAFNKGQIINVLNKEDPDWWKGEVNIQVGLFPSNYVKLTT [G44I] ?
## Output class 0

## Input And AVCQVIGMYDYMAQNDDELAFNKGQIINVLNKEDPDWWKGEVNGQVGLFPSNYVKLTT [T12M] ?
## Output class 2

## Input Can you handle AVCQVIGMYDYTAQNDDELAFNKGQIIGVLNKEDPDWWKGEVNGQVGLFPSNYVKLTT [N28G] next?
## Output class 0

## Input Query AVCQVIGMYDYTAQNDDELAFNKGQIINVLNKEDPDWWKGEVNGQVGLFPSNYVHLTT [K55H] next
## Output class 2

## Input // query: AVCQVIGMYDYTAQNDDELAFNKGQIINVLNKEDPDWWKGEVNGQVGLFESNYVKLTT [P50E]
## Output class 0

## Input Consider next the variant AVCQVIGMYIYTAQNDDELAFNKGQIINVLNKEDPDWWKGEVNGQVGLFPSNYVKLTT [D10I] in the same way.
## Output class 0

## Input And AVCQVIGMYDYTAQVDDELAFNKGQIINVLNKEDPDWWKGEVNGQVGLFPSNYVKLTT [N15V] ?
## Output class 1

## Input Now consider AVCQVIGMYDYTAQNDDELAFNKGQIINVLNKEDPDWWKGEVNGQVGLFPSNYFKLTT [V54F] .
## Output class 0

## Input How about this variant: AVCQVIGMYDYTAQNDDELAFNKGQIINVLNKEDPDWWKGEVNYQVGLFPSNYVKLTT [G44Y]
## Output class 0

## Input Same question for AVCQVIGMYDYTAQNDDELAFNKGQIINVLNKEDPDWWKGEVIGQVGLFPSNYVKLTT [N43I] please.
## Output class 0

## Input Also check AVCQVIGMYDYTAQNDDELAFNKGQIINVLNKEDPDWWKGEVNGQVGGFPSNYVKLTT [L48G]
## Output class 1

## Input Follow-up item: AVCQVIGMYDYTAQNDDELAFNKGQIINVLNKEDPDWWKGEVNGQVGLQPSNYVKLTT [F49Q]
## Output class 1

## Input Field entry: AVCQVIGMYDYTAQNDDFLAFNKGQIINVLNKEDPDWWKGEVNGQVGLFPSNYVKLTT [E18F]
## Output class 2

## Input And then AVCQVIGMYDYTAQNDDELAFNKGQIINVLNKEDPDWWKGEVNGQDGLFPSNYVKLTT [V46D] , what is it?
## Output class 1

## Input What about AVCQVIGMYDYTAQNDDELAFNKGQIINVLNKELPDWWKGEVNGQVGLFPSNYVKLTT [D34L] ?
## Output class 1

## Input And the next one, AVCQVIGMYDYTAQNDDELAFNKGQIINVLNKEDPDWSKGEVNGQVGLFPSNYVKLTT [W38S] ?
## Output class 0

## Input Likewise for AVCQVIGMYDYTAQNDDELAFNKGQFINVLNKEDPDWWKGEVNGQVGLFPSNYVKLTT [I26F] ?
## Output class 1

## Input # repeat for AVCQVIGMYDYTAQNDDELAFNKGQIINVLNKEDPDWWKGEVQGQVGLFPSNYVKLTT [N43Q]
## Output class 2
